test system: murine P388 lymphocytic leukemia cells; test: Increases in life span of mice implanted with murine P388 lymphocytic leukemia cells; type: in vivo, SLC: BDF1 mice; conditions: Mus musculus, P388, ip, 720 h, ip, 25 mg/kg, days 1 and 5, in solution; read-out: ILS (%) (in solution)
Value type: ILS at 25 mg/kg

// solved cases for ILS at 25 mg/kg follow
O=C(O)c1cn(-c2nccs2)c2nc(N3CCCC3)c(F)cc2c1=O [Compound A, reference compound] : 25%
CC1(N)CCN(c2ccc3c(=O)c(C(=O)O)cn(-c4nccs4)c3n2)C1 (stereo not shown) : 125%
Cl.NC1CCN(c2ccc3c(=O)c(C(=O)O)cn(-c4nccs4)c3n2)C1 (stereo not shown) [Compound 3, hydrochloride] : > 275%
CNC1(C)CCN(c2ccc3c(=O)c(C(=O)O)cn(-c4nccs4)c3n2)C1 (stereo not shown) : 150%

GET /values?readout=ILS at 25 mg/kg&item= CO[C@@H]1CN(c2ccc3c(=O)c(C(=O)O)cn(-c4nccs4)c3n2)C[C@H]1N (relative stereo) 213%

Also CN[C@@H]1CN(c2ccc3c(=O)c(C(=O)O)cn(-c4nccs4)c3n2)C[C@H]1OC.Cl (relative stereo) [Compound 1-1, hydrochloride] ? 200%

Also CNC1CCN(c2ccc3c(=O)c(C(=O)O)cn(-c4nccs4)c3n2)C1 (stereo not shown) ? 225%

----------
experiment: Solubility; settings: 0.1 m phosphate buffer, pH 7.2, aqueous buffer
Counter-ions that a name gives are not always drawn.
Value type: solubility

GET /values?readout=solubility&item= COC1CN(c2ccc3c(=O)c(C(=O)O)cn(-c4nccs4)c3n2)CC1N(C)C(=O)[C@H](C)N (stereo partly shown) [Compound 1-1-3, hydrochloride] > 234 mg/mL

----------
Below, each entry is listed with its recorded ILS at 25 mg/kg.
system: murine P388 lymphocytic leukemia cells; experiment: Increases in life span of mice implanted with murine P388 lymphocytic leukemia cells; assay type: in vivo, SLC: BDF1 mice; conditions: Mus musculus, P388, ip, 720 h, NCI criterion, ip, 25 mg/kg; read-out: Evaluation

CC1(N)CCN(c2ccc3c(=O)c(C(=O)O)cn(-c4nccs4)c3n2)C1 (stereo not shown) : > 75%
CNC1CCN(c2ccc3c(=O)c(C(=O)O)cn(-c4nccs4)c3n2)C1 (stereo not shown) : > 75%
O=C(O)c1cn(-c2nccs2)c2nc(N3CCCC3)c(F)cc2c1=O [Compound A, reference compound] : 20 to 74%
Cl.NC1CCN(c2ccc3c(=O)c(C(=O)O)cn(-c4nccs4)c3n2)C1 (stereo not shown) [Compound 3, hydrochloride] : > 75%
CNC1(C)CCN(c2ccc3c(=O)c(C(=O)O)cn(-c4nccs4)c3n2)C1 (stereo not shown) : > 75%
CN[C@@H]1CN(c2ccc3c(=O)c(C(=O)O)cn(-c4nccs4)c3n2)C[C@H]1OC.Cl (relative stereo) [Compound 1-1, hydrochloride] : > 75%

Let us examine a further case.
GET /values?readout=ILS at 25 mg/kg&item= CO[C@@H]1CN(c2ccc3c(=O)c(C(=O)O)cn(-c4nccs4)c3n2)C[C@H]1N (relative stereo) > 75%

----------
Below, each entry is listed with its recorded IC50.
tested on: KB human nasopharynx cancer; assay: In vitro anti-tumor activity against KB human nasopharynx cancer (MTT); type: cell-based; conditions: KB, 72 h, MTT, read-out: IC50
Give the value, in units of mg/L, as a plain number.

GET /values?readout=IC50&item= CCN[C@@H]1CN(c2ccc3c(=O)c(C(=O)O)cn(-c4nccs4)c3n2)C[C@H]1OC (relative stereo) 0.15

Also CN[C@@H]1CN(c2ccc3c(=O)c(C(=O)O)cn(-c4nccs4)c3n2)C[C@H]1OC.Cl (relative stereo) [Compound 1-1] ? 0.11

Also NC1CCN(c2ncc3c(=O)c(C(=O)O)cn(-c4nccs4)c3n2)C1 (stereo not shown) ? 0.636

Also CO[C@@H]1CN(c2ccc3c(=O)c(C(=O)O)cn(-c4nccs4)c3n2)C[C@H]1N (relative stereo) ? 0.309

Entry source: patent US5817669A
